The measured values listed here are drawn from PubChem BioAssay (NCI).

# Method: NCI Yeast Anticancer Drug Screen. Data for the rad52 strain (AID 147);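 also: 0% = growth of vehicle-treated control cultures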
# Condition label: S. cerevisiae rad52 mutant growth inhibition; at 3.7 µM; hits give high values
# Protocol: Growth inhibition of yeast strains with defined genetic alterations is measured as a screen for potential anti-cancer activity. Selected strains with alterations in DNA damage repair or cell cycle control were exposed to compounds and growth inhibition was measured relative to vehicle treated controls. The strain used in this assay is rad52
The panel holds about 79,000 compounds, 15% with a hit somewhere; the sample as a whole holds those more often.

- Compound: "O=C(C#Cc1ccccc1)/C=C/c1ccccc1"
  growth inhibition, %: 3
- Compound: "CCOc1ccc2nc3ccccc3c(N)c2c1"
  growth inhibition, %: 22
- Compound: "CCC(/C=C/c1ccccc1)=N\\Nc1ccc(Cl)c(Cl)c1"
  growth inhibition, %: 11
- Compound: "Cc1c(Cl)c(C)c(Cl)c(O)c1Cl"
  growth inhibition, %: 7
- Compound: "O=C1c2ccccc2-c2cc3ccccc3c(=O)n21"
  growth inhibition, %: 64
- Compound: "O=C1C=C(Br)C(=O)c2ccccc21"
  growth inhibition, %: 19
- Compound: "COc1cc(C(=O)C=O)cc(OC)c1OC"
  growth inhibition, %: 3
- Compound: "COc1ccc2nc(CCc3ccccc3)ccc2c1"
  growth inhibition, %: -25
- Compound: "Cc1cc(Cl)ccc1NC(=O)/C(Cl)=C(/Cl)C(=O)O"
  growth inhibition, %: 6
- Compound: "C/C(=N/NC(=S)Nc1ccccc1C)c1ccccn1"
  growth inhibition, %: 9
- Compound: "O=S1(=O)CCC2=CC(C(F)(F)F)=CC(C(F)(F)F)=CN21"
  growth inhibition, %: 42
- Compound: "OC1(C#CI)CCCCC1"
  growth inhibition, %: 43
- Compound: "CCCCCCCCCCCCCCCCCCN(C)C(COC)COP(=O)([O-])OCC[N+](C)(C)C (stereo not drawn)"
  growth inhibition, %: -67
